This listing pairs compounds with measured RBC.
species: Rattus norvegicus; assay: Open TG-GATES - Regimen: Daily Repeat; type: toxicity, organism-based, Sprague-Dawley; parameters: regimen Daily Repeat, gender Male, age 6 weeks; details: in vivo, po, 1000 mg/kg, […], tissue Blood, route gavage, dose level High, time 28 day
Remember to follow the number with its unit.

compound	RBC
CCOc1ccc(NC(=O)CC(C)O)cc1 (stereo unspecified)	618.4 x10_4/ul
CC(C)OC(=O)C(C)(C)Oc1ccc(C(=O)c2ccc(Cl)cc2)cc1 [FENOFIBRATE]	716 x10_4/ul
COC1=CC(=O)C[C@@H](C)[C@]12Oc1c(Cl)c(OC)cc(OC)c1C2=O	718.4 x10_4/ul
CCOC(=O)CCC(=O)O[C@H]1[C@H](O[C@@H]2[C@@H](C)[C@H](O[C@H]3C[C@@](C)(OC)[C@@H](O)[C@H](C)O3)[C@@H](C)C(=O)O[C@H](CC)[C@@](C)(O)[C@H](O)[C@@H](C)C(=O)[C@H](C)C[C@@]2(C)O)O[C@H](C)C[C@@H]1N(C)C [ERYTHROMYCIN ETHYLSUCCINATE]	804.4 x10_4/ul
COc1ccc2[nH]c([S+]([O-])Cc3ncc(C)c(OC)c3C)nc2c1 (stereo unspecified)	697.2 x10_4/ul

Lab note: next compound to report on.
For NC(N)=Nc1nc(CSCCC(N)=NS(N)(=O)=O)cs1 , what is its reported RBC?
796.6 x10_4/ul

---

This listing pairs compounds with measured GLC.
organism: Rattus norvegicus; assay: Open TG-GATES - Regimen: Single; format: toxicity, organism-based, Sprague-Dawley; design: regimen Single, gender Male, age 6 weeks; settings: in vivo, po, 30 mg/kg, 3 h, tissue Plasma, route gavage, dose level Middle
Write the answer as a number in mg/dL, unit excluded.

Example results:
>>> print(df.to_string())
                                   compound  measure_name    uom  obs_value
0  CC1=C(/C=C/C(C)=C/C=C/C(C)=C/CO)C(C)(C)CCC1 [RETINOL]           GLC  mg/dL      176.4
1  CN(C)CCCN1c2ccccc2CCc2ccccc21 [IMIPRAMINE]           GLC  mg/dL      191.6
2                CN(C)CCN(Cc1cccs1)c1ccccn1           GLC  mg/dL        179

Lab note: next compound to report on.
For CN(C)CCCN1c2ccccc2CCc2ccc(Cl)cc21 [CLOMIPRAMINE] , what is its reported GLC?
187.8

---

species on record: Rattus norvegicus; test: Open TG-GATES - Regimen: Single; assay type: toxicity, organism-based, Sprague-Dawley; set-up: regimen Single, gender Male, age 6 weeks; details: in vivo, po, 300 mg/kg, 9 h, tissue Liver, route gavage, dose level Middle
This listing pairs molecules with measured LIVER.

Example results:
molecule	LIVER
COc1ccc2[nH]c([S+]([O-])Cc3ncc(C)c(OC)c3C)nc2c1 (centres undefined) [OMEPRAZOLE]	9.1 g
COC1=CC(=O)C[C@@H](C)[C@]12Oc1c(Cl)c(OC)cc(OC)c1C2=O [GRISEOFULVIN]	8.7 g
CCOC(=O)CCC(=O)O[C@H]1[C@H](O[C@@H]2[C@@H](C)[C@H](O[C@H]3C[C@@](C)(OC)[C@@H](O)[C@H](C)O3)[C@@H](C)C(=O)O[C@H](CC)[C@@](C)(O)[C@H](O)[C@@H](C)C(=O)[C@H](C)C[C@@]2(C)O)O[C@H](C)C[C@@H]1N(C)C [ERYTHROMYCIN ETHYLSUCCINATE]	8.8 g

For NC(N)=Nc1nc(CSCCC(N)=NS(N)(=O)=O)cs1 [FAMOTIDINE] , what is its reported LIVER?
8.7 g
